Catalogue of molecules with associated Potency
- Protocol text: VSVG counterscreen qHTS to identify inhibitors of SARS-CoV-2 cell entry (AID 1645847); also: potency is read from the fitted curve at half-maximal effect; nearly all actives have a fitted effect of over 65% in size
- Assay conditions: VSV-G pseudotyped particle entry, luciferase; series mostly up to 57.2 µM
Records with an inconclusive call do not appear. Active and inactive are the calls of the source. Calls follow the shape of the full dose curve.
Property name: Potency

Cc1nc(Nc2ncc(C(=O)Nc3c(C)cccc3Cl)s2)cc(N2CCN(CCO)CC2)n1    3.83 µM (active)
COC(=O)C1=C(C)NC(C)=C(C(=O)OCC(C)C)C1c1ccccc1[N+](=O)[O-] (centres undefined)    5.41 µM (active)
COc1cccc2c1C(=O)c1c(O)c3c(c(O)c1C2=O)C[C@@](O)(C(=O)CO)C[C@@H]3O[C@H]1C[C@H](N)[C@H](O)[C@H](C)O1    0.152 µM (active)
Clc1ccc(COC(Cn2ccnc2)c2ccc(Cl)cc2Cl)cc1 (centres undefined)    12.1 µM (active)
Nc1ccn([C@@H]2O[C@H](CO)[C@@H](O)C2(F)F)c(=O)n1    0.304 µM (active)
O=C1C(=O)c2ccccc2C(O)=C1C1CCC(c2ccc(Cl)cc2)CC1 (centres undefined)    9.61 µM (active)
O=C(O)c1ccc(-n2nc(-c3ccccc3O)nc2-c2ccccc2O)cc1    24.1 µM (active)
OCCN1C[C@H](O)[C@@H](O)[C@H](O)[C@H]1CO    4.29 µM (active)
Cc1cn([C@H]2C[C@H](N=[N+]=[N-])[C@@H](CO)O2)c(=O)[nH]c1=O    0.429 µM (active)

---

- Protocol text: Quantitative High-Throughput drug screen in 47 multiple myeloma cell lines against the NCATS MIPE library collection: KMS28PE_JCRB cell viability assay (AID 1918983); also: nearly all actives have a fitted effect of over 35% in size; also: potency is read from the fitted curve at half-maximal effect
- Assay conditions: KMS28PE multiple myeloma viability, CellTiter-Glo ATP, 48 h; series mostly up to 45.8 µM
- Source text: PI: Beverly A. Mock Ph.D. Laboratory of Cancer Biology and Genetics, Center for Cancer Research, National Cancer Institute, National Institute of Health, Bethesda, Maryland […] 5; Detector; 425V; Luminescence; Viewlux PerkinElmer. […] 1. […] Briefly, the corresponding myeloma cell lines were screened in 1,536-well plates with 500 cells, 5-uL per well for inhibition of cell viability (assessed by measuring ATP levels with CellTiterGlo). […]
Records with an inconclusive call do not appear. Calls of active or inactive are those of the source. Calls follow the shape of the dose curve; as a rule, active = well fitted cell-killing curve with a large enough effect; inconclusive = small, poorly fitted or top-dose-only effect, or effect the other way; inactive = no such curve, though single readings can be large or run the other way.
Property name: Potency

Cc1sc2c(c1C)C(c1ccc(Cl)cc1)=N[C@@H](CC(=O)OC(C)(C)C)c1nnc(C)n1-2    0.235 µM (active)
N[C@@H](Cc1ccc(N(CCCl)CCCl)cc1)C(=O)O    16.6 µM (active)
CCCC(C)(COC(N)=O)COC(=O)NC(C)C (configuration not stated)    inactive
C[C@@H]1[C@@H](C(=O)C[C@H]2O[C@@H]3O[C@]4(C)CC[C@@H]5[C@H](C)CC[C@@H]([C@H]2C)[C@@]35OO4)O[C@@H]2O[C@]3(C)CC[C@H]4[C@H](C)CC[C@@H]1[C@@]24OO3    0.418 µM (active)
C[C@@H]1[C@@H](CC(C[C@H]2O[C@@H]3O[C@]4(C)CC[C@@H]5[C@H](C)CC[C@@H]([C@H]2C)[C@@]35OO4)C[S+](=O)([O-])c2ccc(COC(=O)N(C)C)cc2)O[C@@H]2O[C@]3(C)CC[C@H]4[C@H](C)CC[C@@H]1[C@@]24OO3 (some centres not stated)    0.209 µM (active)
CN(C)CCN(C)CCc1ccc(Cl)c(Cl)c1    inactive
O=C(O)C(=O)c1cn(Cc2ccccc2)c2ccc(-c3ccc(OC(F)(F)F)cc3)cc12    3.32 µM (active)

---

- Protocol text: qHTS assay to identify small molecule inhibitors of chordoma cells - UCH-1 (AID 1259355); also: nearly all actives have a fitted effect of over 55% in size; also: potency is read from the fitted curve at half-maximal effect
- Assay conditions: UCH-1 chordoma viability, CellTiter-Glo, 48 h, combination; series mostly up to 46.1 µM
Results filed as inconclusive are left out. Calls of active or inactive are those of the source. Calls come from the whole dose curve; as a rule, active = well fitted cell-killing curve with a large enough effect; inconclusive = small, poorly fitted or top-dose-only effect, or effect the other way; inactive = no such curve, though single readings can be large or run the other way.
Property name: Potency

NCC(CC(=O)O)c1ccc(Cl)cc1 (centres undefined)    inactive
O=[N+]([O-])c1cc([As](=O)(O)O)ccc1O    inactive
Cc1ncc(CNC(=O)N(CCCl)N=O)c(N)n1    inactive
O=c1[nH]c2ccccc2n1CCCN1CCC(n2c(=O)[nH]c3cc(Cl)ccc32)CC1    inactive
Fc1ccc(C(OCCN2CCN(CCCc3ccccc3)CC2)c2ccc(F)cc2)cc1    31.6 µM (active)
C[C@H]1O[C@@H](O[C@H]2[C@@H](O)C[C@H](O[C@H]3[C@@H](O)C[C@H](O[C@H]4CC[C@@]5(C)[C@H](CC[C@@H]6[C@@H]5CC[C@]5(C)[C@@H](C7=CC(=O)OC7)CC[C@]65O)C4)O[C@@H]3C)O[C@@H]2C)C[C@H](O)[C@@H]1O    0.112 µM (active)
CC(C)(N)Cc1ccc(Cl)cc1    inactive
NCC(O)c1ccc(O)cc1 (centres undefined)    inactive
CCN(CC)C(=O)N[C@@H]1C=C2c3cccc4[nH]cc(c34)C[C@@H]2N(C)C1    inactive
Cn1c(CCCC(=O)O)nc2cc(N(CCCl)CCCl)ccc21    inactive
CCCC1CCCCN1 (centres undefined)    inactive
CN(C)[C@@H]1C(=O)C(C(N)=O)=C(O)[C@@]2(O)C(=O)C3=C(O)c4c(O)cccc4[C@@](C)(O)[C@H]3C[C@@H]12    inactive
CC1OC(C)OC(C)O1 (centres undefined)    inactive
CCOP(=S)(OCC)Oc1cc(C)nc(C(C)C)n1    inactive
CCN(CC)CCN1C(=O)CN=C(c2ccccc2F)c2cc(Cl)ccc21    inactive
Cc1ccc(S(=O)(=O)N[C@@H](CCCCN)C(=O)CCl)cc1    inactive
CC[N+](CC)(CC)CC    inactive
Nc1ccncc1    inactive
c1ccc2c(c1)OCC(C1=NCCN1)O2 (centres undefined)    31.6 µM (active)
CN1C(=S)CN=C(c2ccccc2)c2cc(Cl)ccc21    inactive
CC(C)CC(N(C)C)C1(c2ccc(Cl)cc2)CCC1 (centres undefined)    inactive
CC(C)(C)CC(C)(C)c1ccc(O)cc1    inactive
Oc1cccc2cccnc12    inactive
CC1NCCOC1c1ccccc1 (centres undefined)    inactive

---

- Protocol text: Cell Viability - LYMP2-023 (AID 975);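 also: cells exposed to compound for 24 hours at 37 °C; nearly all actives have a fitted effect of over 55% in size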
- Assay conditions: LYMP2-023 lymphoblastoid cell viability; series mostly up to 92.2 µM
Inconclusive results are not listed. Activity calls are given as the source filed them. Calls come from the whole dose curve; as a rule, active = well fitted cell-killing curve with a large enough effect; inconclusive = small, poorly fitted or top-dose-only effect; inactive = flat fitted curve, though single readings scatter.
Classes used: YES (active), NO (inactive)

CCOP(=S)(OCC)Oc1cc(C)nc(C(C)C)n1    NO
NCC(O)c1ccc(O)cc1 (configuration not stated)    NO
CNCC(O)c1ccc(O)cc1 (configuration not stated)    NO
Oc1cccc2cccnc12    YES
CC(COc1ccccc1)N(CCCl)Cc1ccccc1 (configuration not stated)    YES
CCCC(C)(COC(N)=O)COC(=O)NC(C)C (configuration not stated)    NO
N[C@@H](Cc1ccc(N(CCCl)CCCl)cc1)C(=O)O    YES

---

- Tested on: HB3
- Protocol text: qHTS profiling for inhibitors of Plasmodium falciparum proliferation (AID 504749); also: nearly all actives have a fitted effect of over 60% in size
- Assay conditions: P. falciparum in erythrocytes, SYBR Green DNA, 72 h; series mostly up to 28.7 µM
Results filed as inconclusive are left out. Activity calls are given as the source filed them. The call rests on the fitted dose curve; in most records, active means well fitted inhibition curve with a large enough effect; inconclusive means small, poorly fitted or top-dose-only effect; inactive means flat fitted curve, though single readings scatter.
Classes used: T for active, F for inactive

CC(C)(N)Cc1ccc(Cl)cc1    F
O=C1NCN(c2ccccc2)C12CCN(CC1COc3ccccc3O1)CC2 (configuration not stated)    F
Cc1ccc(-c2nc3ccc(C)cn3c2CC(=O)N(C)C)cc1    F
CN1CCN(C(=O)O[C@H]2c3nccnc3C(=O)N2c2ccc(Cl)cn2)CC1    F
CC[C@@H](CO)NC(=O)[C@@H]1C=C2c3cccc4[nH]cc(c34)C[C@H]2N(C)C1    F
CCC(C(N)=O)N1CCCC1=O (configuration not stated)    F
Oc1cccc2cccnc12    F
C=C1CC[C@@]2(O)[C@H]3Cc4ccc(O)c5c4[C@@]2(CCN3CC2CC2)[C@H]1O5    F
Oc1ccc(Cl)cc1Cc1ccccc1    T
Fc1ccc(C(OCCN2CCN(CCCc3ccccc3)CC2)c2ccc(F)cc2)cc1    T
Cc1cccc(C)c1NC1=NCCCS1    F
Nc1ccncc1    F

---

- Protocol text: qHTS of pediatric cancer cell lines to identify multiple opportunities for drug repurposing: Primary screen for Rh41 cells (AID 1347108); also: nearly all actives have a fitted effect of over 70% in size
- Assay conditions: Rh41 rhabdomyosarcoma viability, CellTiter-Glo luminescence, 48 h; series mostly up to 46 µM
Records with an inconclusive call do not appear. Active and inactive are the calls of the source. The call rests on the fitted dose curve; in most records, active means well fitted cell-killing curve with a large enough effect; inconclusive means small, poorly fitted or top-dose-only effect; inactive means no such curve, though single readings can be large or run the other way.
Possible outcomes: Yes (active), No (inactive)

O=c1[nH]c2ccccc2n1CCCN1CCC(n2c(=O)[nH]c3cc(Cl)ccc32)CC1    No
Clc1ccc(CCC(Cn2ccnc2)Sc2c(Cl)cccc2Cl)cc1 (stereo not drawn)    No
C=C1CC[C@@]2(O)[C@H]3Cc4ccc(O)c5c4[C@@]2(CCN3CC2CC2)[C@H]1O5    No
CNC(=O)c1ccc(N2C(=S)N(c3ccc(C#N)c(C(F)(F)F)c3)C(=O)C23CCC3)cc1F    Yes
C[C@]12CC[C@H]3[C@@H](CCC4=CC(=O)CC[C@@H]43)[C@@H]1CC[C@@H]2OC(=O)CCc1ccccc1    No
Cc1ccc(-c2nc3ccc(C)cn3c2CC(=O)N(C)C)cc1    No
CCN(CC)CCOC(=O)C(O)(c1ccccc1)c1ccccc1    No
CC(C)NCC(O)c1ccccc1Cl (stereo not drawn)    No
Cc1sc2c(c1C)C(c1ccc(Cl)cc1)=N[C@@H](CC(=O)OC(C)(C)C)c1nnc(C)n1-2    Yes
CCCN1CCC[C@@H]2Cc3nc(N)ncc3C[C@H]21    No
Cn1c(CCCC(=O)O)nc2cc(N(CCCl)CCCl)ccc21    No
Cc1ccc(S(=O)(=O)N[C@@H](CCCCN)C(=O)CCl)cc1    No
CCCC(C)(COC(N)=O)COC(=O)NC(C)C (stereo not drawn)    No
CN1C[C@H](CNC(=O)OCc2ccccc2)C[C@@H]2c3cccc4c3c(cn4C)C[C@H]21    No
Oc1ccc(Cl)cc1Cc1ccccc1    No
COc1ccc2c(c1OC)CN1CCc3cc4c(cc3C1C2)OCO4 (stereo not drawn)    No
Oc1ccccc1-c1ccccc1    No
O=C(O)c1ccc2[nH]cc(CCCCN3CC=C(c4ccccc4)CC3)c2c1    No
CC(O)(CS(=O)(=O)c1ccc(F)cc1)C(=O)Nc1ccc(C#N)c(C(F)(F)F)c1 (stereo not drawn)    Yes
CN(C)CCN(C)CCc1ccc(Cl)c(Cl)c1    No
NCCc1cc(O)c(O)cc1O    No
COc1ccc(C(=O)c2c(C)n(CCN3CCOCC3)c3ccccc23)cc1    No
CCC(COC(=O)c1cc(OC)c(OC)c(OC)c1)(c1ccccc1)N(C)C (stereo not drawn)    No
